Assign IC50 to each entry below.
biological target: Protein Tat (Human immunodeficiency virus type 1 group M subtype B (isolate HXB2)) (UniProt P04608); assay: inhibitors of Tat binding to TAR RNA, dose response, counter-screen for Vif-APOBEC3G degradation inhibitor project, biochemical, fluorescence polarization, FAM-labeled TAR RNA (AID 1117361)
Sequence (P04608 whole entry, looked up): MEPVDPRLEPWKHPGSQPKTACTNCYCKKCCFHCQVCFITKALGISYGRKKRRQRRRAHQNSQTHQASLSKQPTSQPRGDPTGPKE

Given item CC1=C(C#N)C(=O)N(C2CCS(=O)(=O)C2)C(=O)/C1=C\c1ccc(C)o1 (configuration not stated) , the value recorded as its IC50 is 1.35 µM

For record "O/N=C1\CCC\C1=C/c1ccco1" the listed IC50 is 27.2 µM

IC50 for "C=CCNc1nc2ccccc2nc1NS(=O)(=O)c1cccs1" is 45 µM

Short answer for "COc1ccc(NC(=S)NCCc2ccccc2OC)c(OC)c1" : IC50 was 13.7 µM

Per the records, this molecule ( "CN1CCc2cccc3c2[C@H]1Cc1ccc(O)c(O)c1-3" ) has IC50 equal to 19.1 µM

Entry under test: "CC(C)Cn1c(SCC(=O)NC(=O)Nc2ccc3c(c2)OCCO3)nc2ccccc2c1=O" . Its IC50 was 1.62 µM

Lab note: measured IC50 of CCCCC1=CC2=C(c3ccco3)C(=O)C(C)(OC(=O)c3ccc(OC)cc3)C(=O)C2=CN1CCCCO (configuration not stated) was 29.3 µM
